As an illustration, consider measured pKi for compounds on Nicotinic acetylcholine receptor (Rattus leucopus).
Sequence (Q62594 whole entry): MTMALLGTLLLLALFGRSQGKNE
Keep it numeric: pKi is minus log10 of the concentration in mol/L.

CN1[C@@H](C[C@@H](O)c2ccccc2)CCC[C@H]1CC(=O)c1ccccc1 = 7.81

Find pKi (Nicotinic acetylcholine receptor (Rattus leucopus)) for the entry `CNC(=O)OCC[N+](C)(C)C`
8.28
